- study-system: glucokinase (GK) (Homo sapiens, UniProt P35557)
- Construct: I.D. No. 1 corresponds to residues 12-465 of glucokinase
- Sequence (P35557 with tags, fused parts or gaps isoform P35557-2): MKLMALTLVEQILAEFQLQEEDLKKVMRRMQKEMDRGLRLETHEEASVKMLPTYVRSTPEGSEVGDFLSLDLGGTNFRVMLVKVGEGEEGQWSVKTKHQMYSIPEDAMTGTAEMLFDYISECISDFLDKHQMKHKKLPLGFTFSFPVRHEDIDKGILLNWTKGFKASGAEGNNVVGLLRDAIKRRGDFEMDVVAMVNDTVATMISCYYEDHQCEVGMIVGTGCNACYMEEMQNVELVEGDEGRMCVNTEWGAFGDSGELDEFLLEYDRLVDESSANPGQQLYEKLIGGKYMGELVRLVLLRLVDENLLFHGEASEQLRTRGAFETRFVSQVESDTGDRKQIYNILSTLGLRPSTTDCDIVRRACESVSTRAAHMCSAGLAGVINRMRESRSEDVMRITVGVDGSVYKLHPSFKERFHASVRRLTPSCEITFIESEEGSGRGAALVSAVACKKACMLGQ
- test-protocol: enzymatic glucokinase activity assay (ATP consumption, KinaseGlo luminescence)
- condition: recombinant GK residues 12-465; 5 μM ATP, 5 mM Glucose; Kact = concentration that displays 50% of the maximal increase in GK activity; read-out: pKact
pEC50: −log10 of the molar value.
reported-metric: pEC50

Entry Cn1ccc(NC(=O)[C@H](CC2CCOCC2)n2ccc(S(=O)(=O)C3CC3)cc2=O)n1 needs its pEC50 filled in; supply it.
4.80 to 5.80

More entries:
Item O=C(Nc1ncc(F)s1)[C@H](CC1CCOCC1)n1cc(Cl)c(S(=O)(=O)C2CC2)cc1=O : provide pEC50
4.80 to 5.80

Provide measured pEC50 value, entry: O=C(Nc1ncc(Cl)s1)C(CC1CCOCC1)n1cc(S(=O)(=O)N2CCCC2)ccc1=O (stereo not shown)
4.80 to 5.80

Provide measured pEC50 value, entry: CN(C)C(=O)CN1CCN(Cc2cnc(NC(=O)C(CC3CCOCC3)n3ccc(S(=O)(=O)C4CC4)cc3=O)s2)CC1 (stereo not shown)
< 4.80
